# TGT: membrane-bound Torpedo californica nicotinic acetylcholine receptor (Torpedo californica)
# Sequence (P02710 25-461 limits assumed, chain 1 of 4): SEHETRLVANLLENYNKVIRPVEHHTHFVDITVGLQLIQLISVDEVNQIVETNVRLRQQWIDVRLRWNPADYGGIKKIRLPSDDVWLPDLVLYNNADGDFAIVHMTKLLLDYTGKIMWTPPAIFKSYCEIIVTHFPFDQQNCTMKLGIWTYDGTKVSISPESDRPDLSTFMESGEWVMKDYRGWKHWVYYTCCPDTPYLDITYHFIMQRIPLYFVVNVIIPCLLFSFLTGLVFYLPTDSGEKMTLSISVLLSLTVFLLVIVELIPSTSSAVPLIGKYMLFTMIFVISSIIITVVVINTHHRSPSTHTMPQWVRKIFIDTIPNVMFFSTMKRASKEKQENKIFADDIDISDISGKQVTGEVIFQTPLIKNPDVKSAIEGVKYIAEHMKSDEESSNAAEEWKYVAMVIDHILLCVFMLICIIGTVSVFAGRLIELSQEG
# Sequence (P02712 25-493 limits assumed, chain 2 of 4, further chain): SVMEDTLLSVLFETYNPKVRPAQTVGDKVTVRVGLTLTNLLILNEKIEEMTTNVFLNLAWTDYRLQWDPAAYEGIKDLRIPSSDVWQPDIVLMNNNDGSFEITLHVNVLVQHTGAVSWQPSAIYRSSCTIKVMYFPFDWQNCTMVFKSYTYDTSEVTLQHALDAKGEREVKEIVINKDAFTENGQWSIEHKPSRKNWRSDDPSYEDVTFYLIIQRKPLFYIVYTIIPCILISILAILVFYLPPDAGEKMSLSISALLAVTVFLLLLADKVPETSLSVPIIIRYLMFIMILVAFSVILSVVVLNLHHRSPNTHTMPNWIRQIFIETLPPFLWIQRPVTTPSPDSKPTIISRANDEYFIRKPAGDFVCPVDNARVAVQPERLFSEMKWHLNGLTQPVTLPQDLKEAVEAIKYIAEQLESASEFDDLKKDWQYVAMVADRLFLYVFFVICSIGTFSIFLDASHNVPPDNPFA
# Sequence (P02714 18-506 limits assumed, chain 3 of 4, further chain): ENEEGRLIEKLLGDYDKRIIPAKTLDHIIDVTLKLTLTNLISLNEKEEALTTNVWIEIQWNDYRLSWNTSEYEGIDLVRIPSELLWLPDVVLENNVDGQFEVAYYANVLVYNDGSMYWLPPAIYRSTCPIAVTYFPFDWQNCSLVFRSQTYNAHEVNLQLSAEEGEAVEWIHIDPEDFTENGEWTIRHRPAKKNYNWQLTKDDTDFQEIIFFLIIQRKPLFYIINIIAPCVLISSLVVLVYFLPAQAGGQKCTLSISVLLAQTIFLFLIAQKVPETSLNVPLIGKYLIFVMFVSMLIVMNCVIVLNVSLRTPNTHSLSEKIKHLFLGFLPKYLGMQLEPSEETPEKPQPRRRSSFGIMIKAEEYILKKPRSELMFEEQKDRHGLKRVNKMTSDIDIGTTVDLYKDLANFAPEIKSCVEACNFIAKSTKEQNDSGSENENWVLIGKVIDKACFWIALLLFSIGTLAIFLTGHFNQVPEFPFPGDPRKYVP
# Sequence (P02718 22-522 limits assumed, chain 4 of 4, further chain): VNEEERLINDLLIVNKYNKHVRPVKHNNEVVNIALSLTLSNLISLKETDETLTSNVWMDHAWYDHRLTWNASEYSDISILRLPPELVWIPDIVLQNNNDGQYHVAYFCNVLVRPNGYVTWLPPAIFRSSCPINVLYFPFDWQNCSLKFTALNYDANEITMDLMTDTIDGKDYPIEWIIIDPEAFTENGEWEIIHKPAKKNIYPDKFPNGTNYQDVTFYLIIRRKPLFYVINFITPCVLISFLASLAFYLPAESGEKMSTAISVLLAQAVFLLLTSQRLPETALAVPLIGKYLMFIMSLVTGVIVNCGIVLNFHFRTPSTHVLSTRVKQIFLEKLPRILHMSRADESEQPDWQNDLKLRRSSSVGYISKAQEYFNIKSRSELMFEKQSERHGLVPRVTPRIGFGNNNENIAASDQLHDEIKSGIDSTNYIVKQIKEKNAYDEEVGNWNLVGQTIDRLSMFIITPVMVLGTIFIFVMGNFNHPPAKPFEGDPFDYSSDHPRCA
# EXPERIMENT: radioligand binding
pIC50: −log10 of the molar value. No end group written: not given here.
Reported pIC50 values for the following binders.

[
  {
    "BINDER": "CTRTYYTPTRMC [Lynx1 short linear (4), shorter loop II fragment of human Lynx1 with free terminal Cys]",
    "pIC50": 4.81
  },
  {
    "BINDER": "CTRTYYTPTRMC (not fully specified (bridges); cysteine pairing not given here) [Lynx1 short (3), shorter loop II fragment of human Lynx1 with terminal Cys, disulfide-cyclised]",
    "pIC50": 4.13
  },
  {
    "BINDER": "CTTRTYYTPTRMKVSKC (not fully specified (bridges); cysteine pairing not given here)",
    "pIC50": 5.31
  },
  {
    "BINDER": "TTRTYYTPTRMKVSK [Lynx1 linear (2), synthetic 15-membered loop II fragment of human Lynx1]",
    "pIC50": 4.88
  }
]

Data provenance: paper PMC6616073
